- methodNotes: NCI Yeast Anticancer Drug Screen. Data for the CLN2oe strain (AID 163);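 note: 0% = growth of vehicle-only control cultures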
- conditionDescription: S. cerevisiae CLN2oe strain, at 33.0 µM, hits give high values
Compounds without any hit were thinned out: in the full panel of roughly 79,000, 15% have a hit.
Classify by measured growth inhibition: condition met if it is equal to or exceeds 40%, condition not met if it is smaller.

>>> print(df.to_string())
                                    compound     classification
 0  Cc1cc(N(CCOS(C)(=O)=O)CCOS(C)(=O)=O)ccc1C=O  condition not met
 1       O=C1c2ccc(O)cc2C(=O)c2c(O)ccc(O)c21      condition met
 2  CC(C)OC(CCC#N)c1ccc(Cl)cc1 (stereo not given)  condition not met
 3                   C#CC1=CC(=O)C(OC)=CC1=O      condition met
 4            NNc1nnc(-c2ccccc2)nc1Cc1ccccc1      condition met
 5               Cc1cnccc1N=Nc1ccc(N(C)C)cc1  condition not met
 6  O=C(N/N=C/c1ccc2c(c1)CCC2)c1ccccc1[N+](=O)[O-]  condition not met
 7                 Nc1ccc2cc(Br)c3ccccc3c2c1  condition not met
 8  CCCC(=O)OC(OC(=O)CCC)c1ccc([N+](=O)[O-])o1  condition not met
 9  COc1ccc2cc(CN3CCC(C4CCN(Cc5ccc6cc(OC)ccc6c5)CC4)CC3)ccc2c1  condition not met
10  O=S(=O)(O)c1ccc2c(N=Nc3c(O)ccc4ccccc34)cccc2c1  condition not met
11  CN(C)c1ccc(/C=C/c2ccnc3ccc4ccccc4c23)cc1  condition not met
12             Cc1[nH]nc(C(F)(F)F)c1N=NN(C)C      condition met
13  c1ccc(N/N=C2\CC(c3ccccc3)Oc3ccccc32)cc1 (stereo not given)  condition not met
14                CN(C)/N=N/c1nc[nH]c1C(N)=O  condition not met
15    CN(C)CCn1c2ccccc2c2nc3cc4ccccc4cc3nc21      condition met
16     [Cl][Pt+2][Cl].[NH-]CC1(C[NH-])CCCCC1      condition met
17  O=S(=O)(CCC[C@H]1[C@@H](CCOCc2ccccc2)C2CCCN1O2)c1ccccc1 (stereo not given in full)  condition not met
18  CCSc1c2ccccc2c(-c2nc(F)nc(F)n2)n1CCc1ccccc1      condition met
19  O=C(c1c(F)c(F)c(F)c(F)c1F)c1c(F)c(F)c(F)c(F)c1F      condition met
20              O=C1C=CC(=O)N1c1ccc(Br)cc1Cl      condition met
21                      O=CC(=C(I)I)c1ccccc1      condition met
22            COc1ccc(CCN2C(=O)C=CC2=O)cc1OC      condition met
23  CN(C)c1ccc(C(c2ccc(Cl)cc2)c2ccc(N(C)C)cc2)cc1      condition met

====

- methodNotes: NCI Yeast Anticancer Drug Screen. Data for the bub3 strain (AID 167)
- conditionDescription: S. cerevisiae bub3 mutant strain, at 11.0 µM, hits give high values
This is part of a sample that, as a whole, favours compounds with a hit. Of some 79,000 tested, about 15% had one in any assay.
measurementKind: growth inhibition (%)

compound	measuredValue
CN1CCN(c2ccc3nc(-c4ccc5nc(-c6ccc(O)cc6)[nH]c5c4)[nH]c3c2)CC1	97
CN(C)N1C(=O)SCC(c2ccccc2)(c2ccccc2)C1=O	12
CN(C)N=Nc1ccc(NC=O)cc1	27
CN(C)CCC(=O)c1c[nH]c2ccccc12	-36
O=C(Nc1ccn(C2CC(O)C(COC(c3ccccc3)(c3ccccc3)c3ccccc3)O2)c(=O)n1)c1ccccc1 (centres undefined)	81
CC[C@]1(O)C[C@H]2CN(CCc3c([nH]c4ccccc34)[C@@](C(=O)OC)(c3cc4c(cc3OC)N(C)[C@H]3[C@@](O)(C(=O)OC)[C@H](OC(C)=O)[C@]5(CC)C=CCN6CC[C@]43[C@@H]65)C2)C1	-1
O=S(=O)(Oc1c(Cl)cc(Cl)cc1Cl)c1ccccc1	-2
Cc1cc(NC(=S)SCc2ccc(Cl)cc2)ccc1Cl	49
CCOc1ccccc1N1C(=O)CC(Sc2ccccc2N)C1=O (centres undefined)	-10
S=C1NC2=C(CSC/C2=C\c2ccc(Cl)cc2)C(c2ccc(Cl)cc2)N1 (centres undefined)	16
O=C1c2ccccc2C(=O)C1C(c1ccc(F)cc1)C1C(=O)c2ccccc2C1=O	-34
[N-]=[N+]=NC1CC(n2ccc(=O)[nH]c2=O)OC1COC(c1ccccc1)(c1ccccc1)c1ccccc1 (centres undefined)	15
Cc1cccc(N2CCN(C(=O)/C(=C/c3ccccc3)NC(=O)c3ccccc3)CC2)c1	5
Oc1ccc(Br)cc1C=Nc1cccc(C(F)(F)F)c1	-5
CCOC(=O)C1=C(C)NC(C)=C(C(=O)OCC)C1c1ccc(Cl)cc1	85
CCSc1c2ccccc2c(-c2nc(F)nc(F)n2)n1CCc1ccccc1	-3
Nc1nc(Nc2ccccc2)nc(Nc2ccccc2)n1	-8
[Cl][Pt+2][Cl].[NH-]CC1(C[NH-])CCCCC1	97
CCOc1ccc2ccc3cccnc3c2n1	1
Nc1ccc2cc(Br)c3ccccc3c2c1	2
CCOC(=O)c1sc2[n+](c1C)C(=O)/C(=C/c1cc(OC)c(OC)c(OC)c1)S2	21
Cc1ccnc(NS(=O)(=O)c2ccc(Nc3c4ccccc4nc4ccccc34)cc2)n1	-20
COc1ccc2nc(N/N=C/c3sccc3C)cc(C)c2c1	38
CCCCCC/C(C)=N/Nc1ccc([N+](=O)[O-])cc1[N+](=O)[O-]	-8
O=C(CCCN1CCC2(CC1)OC(=O)N(c1ccccc1)C2=O)c1ccccc1	35
CC(O)CN1C(=O)c2cccc3cc([N+](=O)[O-])cc(c23)C1=O (centres undefined)	-11
Cc1c2ccncc2c(C)c2c1oc1ccccc12	40
CCN(CC)c1cccc(Nc2nc3ccccc3s2)c1	5
CN(C)CCNC(=O)c1cccc2nc3c(ccc4ccccc43)nc12	5
CCCCOc1ccc(Nc2c3ccccc3nc3ccccc23)cc1	66
NCC(O)CSCc1ccc(Cl)cc1 (centres undefined)	1
COc1ccc(C(=O)OCCc2ccccc2)cc1	16
Cc1ccc2oc(-c3cccc(N)c3)nc2c1	9
O=S(=O)(O)CC[S][Sn]([S]CCS(=O)(=O)O)([c]1ccccc1)[c]1ccccc1	87
O=S(=O)(CCC[C@H]1[C@@H](CCOCc2ccccc2)C2CCCN1O2)c1ccccc1 (some centres undefined)	2
CNC(=O)OCc1c(COC(=O)NC)c(C)n(-c2ccc(Cl)c(Cl)c2)c1C	-21
CCCC(=O)OC(OC(=O)CCC)c1ccc([N+](=O)[O-])o1	-4
Cc1cc(N(CCOS(C)(=O)=O)CCOS(C)(=O)=O)ccc1C=O	4
CC(C)(C(=O)NN)c1ccccc1	34
Cc1cccc[c]1[Sn]([Cl])([S]/C(C#N)=N/N=C/c1ccc(N(C)C)cc1)[c]1ccccc1C	0
c1cc2ccc3cc4ncccc4c4ccc(c1)c2c34	36
CN(Cc1cccc2ccccc12)Cc1cccc2ccccc12	-25
Cc1[nH]nc(C(F)(F)F)c1N=NN(C)C	45
O=c1c(Br)cc2c(-c3ccccc3)c3cc(Br)c(O)c(Br)c3oc-2c1Br	76
